Target: T1, human CD30 (commercial, conjugated to digoxigenin) (human, UniProt P28908 19-379, limits assumed, conjugated to digoxigenin (DIG))
T1 sequence (looked up): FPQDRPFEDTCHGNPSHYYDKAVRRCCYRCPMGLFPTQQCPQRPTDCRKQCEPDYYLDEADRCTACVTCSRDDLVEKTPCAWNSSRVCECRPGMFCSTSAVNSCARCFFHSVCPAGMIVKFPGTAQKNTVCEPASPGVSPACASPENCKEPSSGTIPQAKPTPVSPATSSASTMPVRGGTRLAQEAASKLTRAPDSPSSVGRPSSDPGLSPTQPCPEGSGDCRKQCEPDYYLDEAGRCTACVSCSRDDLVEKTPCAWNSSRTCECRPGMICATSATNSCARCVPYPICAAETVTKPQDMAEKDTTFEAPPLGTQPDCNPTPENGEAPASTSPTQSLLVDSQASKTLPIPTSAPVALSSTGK
Assay: AlphaScreen competition
Catalogue of binders with associated Fold IC50 vs H3/L3
Respond numerically; units are fold and should not be typed.

AC10 H3.58/L3 (antibody, IgG1, name in Kabat numbering, V domains shown) VH: QIQLVQSGPEVKKPGASVKVSCKASGYTFTDYYITWVRQAPGQGLEWMGWIYPGSGNTKYNEKFQGRFVFSVDTSASTAYLQISSLKAEDTAVYFCANYGNYWFQYWGQGTLVTVSS VL: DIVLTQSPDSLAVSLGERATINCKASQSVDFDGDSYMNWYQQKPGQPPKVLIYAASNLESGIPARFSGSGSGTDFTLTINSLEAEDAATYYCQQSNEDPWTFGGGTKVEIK : 0.16
AC10 H3.23/L3 (antibody, IgG1, name in Kabat numbering, V domains shown) VH: QIQLVQSGPEVKKPGASVKVSCKASGYTFTDYYITWVRQAPGQGLEWMGRIYPGSGNTKYNEKFQGRFVFSVDTSASTAYLQISSLKAEDTAVYFCANYGNYWFAYWGQGTLVTVSS VL: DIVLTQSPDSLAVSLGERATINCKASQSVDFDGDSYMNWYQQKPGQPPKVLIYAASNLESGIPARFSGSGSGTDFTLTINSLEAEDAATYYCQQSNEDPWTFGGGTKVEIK : 0.16
AC10 H3.45/L3 (antibody, IgG1, name in Kabat numbering, V domains shown) VH: QIQLVQSGPEVKKPGASVKVSCKASGYTFTDYYITWVRQAPGQGLEWMGWIYPGSGNTKYNEKFQGRFVFSVDTSASTAYLQISSLKAEDMAVYFCANYGNYWFAYWGQGTLVTVSS VL: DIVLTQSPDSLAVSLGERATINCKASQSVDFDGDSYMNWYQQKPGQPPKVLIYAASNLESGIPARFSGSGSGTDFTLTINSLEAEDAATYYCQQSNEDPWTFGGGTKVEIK : 1.14

input: Returns the measured Fold IC50 vs H3/L3 for the input binder. Input: AC10 H3.5/L3 (antibody, IgG1, name in Kabat numbering, V domains shown) VH: QIQLVQSGAEVKKPGASVKVSCKASGYTFTDYYITWVRQAPGQGLEWMGWIYPGSGNTKYNEKFQGRFVFSVDTSASTAYLQISSLKAEDTAVYFCANYGNYWFAYWGQGTLVTVSS VL: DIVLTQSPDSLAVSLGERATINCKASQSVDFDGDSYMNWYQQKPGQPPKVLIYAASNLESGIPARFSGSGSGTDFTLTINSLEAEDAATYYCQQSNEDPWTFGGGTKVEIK
output: 1.29

input: Queued: AC10 H3.11/L3 (antibody, IgG1, name in Kabat numbering, V domains shown) VH: QIQLVQSGPEVKKPGASVKVSCKASGYTFTDYGITWVRQAPGQGLEWMGWIYPGSGNTKYNEKFQGRFVFSVDTSASTAYLQISSLKAEDTAVYFCANYGNYWFAYWGQGTLVTVSS VL: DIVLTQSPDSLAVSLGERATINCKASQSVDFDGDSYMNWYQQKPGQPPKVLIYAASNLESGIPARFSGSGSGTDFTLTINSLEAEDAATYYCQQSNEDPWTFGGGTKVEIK
output: 0.73
